Catalogue of compounds with associated pIC50
# systemName: Renin (Homo sapiens)
# Sequence (P00797 whole entry): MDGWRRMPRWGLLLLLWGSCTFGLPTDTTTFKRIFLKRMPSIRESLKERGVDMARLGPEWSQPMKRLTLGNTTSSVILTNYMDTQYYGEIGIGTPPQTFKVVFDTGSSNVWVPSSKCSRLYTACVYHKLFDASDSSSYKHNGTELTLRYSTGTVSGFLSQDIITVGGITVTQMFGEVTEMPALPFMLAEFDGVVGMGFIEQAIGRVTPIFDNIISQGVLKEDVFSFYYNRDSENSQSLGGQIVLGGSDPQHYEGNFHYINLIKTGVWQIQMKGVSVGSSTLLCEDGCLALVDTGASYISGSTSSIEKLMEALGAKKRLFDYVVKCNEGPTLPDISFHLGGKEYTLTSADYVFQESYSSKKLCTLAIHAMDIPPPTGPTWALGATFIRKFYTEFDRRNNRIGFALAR
# assay: Inhibition of human recombinant renin by FRET
Please express pIC50 as -log10 of the molar concentration.

Lab request: please report pIC50 under test system Renin (Homo sapiens) for NC1=NC(c2ccc(OC(F)(F)F)cc2)(c2cccc(-c3cccnc3F)c2)C2=NOCCN12 (configuration not stated)
5.69

Field: next compound
Query the reported pIC50 for Renin (Homo sapiens); item: NC1=N[C@](c2ccc(OC(F)(F)F)cc2)(c2cccc(-c3cccnc3F)c2)C2=NCCCN12
4.68

###

pIC50 for assorted compounds
# systemName: Beta-secretase 1 (Homo sapiens)
# Sequence (P56817 whole entry): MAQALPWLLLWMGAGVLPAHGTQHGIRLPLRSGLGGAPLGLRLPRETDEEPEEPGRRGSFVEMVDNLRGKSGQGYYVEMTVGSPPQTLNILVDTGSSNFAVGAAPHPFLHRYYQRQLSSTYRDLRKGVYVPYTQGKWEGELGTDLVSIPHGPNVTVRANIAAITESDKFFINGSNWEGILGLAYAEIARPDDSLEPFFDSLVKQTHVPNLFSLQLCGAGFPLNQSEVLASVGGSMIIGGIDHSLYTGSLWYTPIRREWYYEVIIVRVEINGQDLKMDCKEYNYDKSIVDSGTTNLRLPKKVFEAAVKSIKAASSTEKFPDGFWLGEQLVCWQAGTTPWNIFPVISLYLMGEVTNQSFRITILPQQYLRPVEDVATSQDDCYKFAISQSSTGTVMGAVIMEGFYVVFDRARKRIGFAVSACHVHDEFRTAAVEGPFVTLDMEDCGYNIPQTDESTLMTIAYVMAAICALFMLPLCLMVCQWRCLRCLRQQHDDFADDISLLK
# assay: Inhibition of human BACE1 by FRET
pIC50 is a log-scale quantity: -log10 of the concentration expressed in molar.

What pIC50 value was documented for this compound, NC1=NC(c2ccccc2)(c2cccc(C(F)(F)F)c2)C2=NCCCN12 (stereo not given) ?
4.66

Next record, please: NC1=NC(c2ccc(OC(F)(F)F)cc2)(c2cccc(-c3cccnc3F)c2)C2=NCCCCN12 (stereo not given)
7.10

Also COc1ccc(C2(c3cccc(-c4cccnc4F)c3)N=C(N)N3CCCN=C32)cc1 (stereo not given) ?
7.15

Check CC(C)(C)c1cccc(C2(c3ccccc3)N=C(N)N3CCCN=C32)c1 (stereo not given) too.
4.52

Others:
What value of pIC50 has been recorded for this entry: CC1(C)CN2C(N)=NC(c3ccc(OC(F)(F)F)cc3)(c3cccc(-c4cccnc4F)c3)C2=N1 (stereo not given)
6.72

###

# systemName: Renin (Homo sapiens) (UniProt P00797)
# assay: Inhibition of human recombinant renin at 50 uM by FRET
endpoint: inhibition (%)
Express it in %; write the number only.

Reported inhibition for NC1=NC(c2ccccc2)(c2cccc(Cc3ccc(F)cc3)c2)C2=NCCCN12 (centres undefined) : what is it?
15

Also, CCOc1ccc(C2(c3cccc(-c4cccnc4F)c3)N=C(N)N3CCCN=C32)cc1OCC (centres undefined) please.
14

Please do the same for NC1=N[C@](c2ccc(OC(F)(F)F)cc2)(c2cccc(-c3cncnc3)c2)C2=NCCCN12 as well.
36

Kindly review the next compound as well.
Quick one: inhibition of NC1=NC(c2cccc(-c3cccnc3F)c2)(c2ccc3c(c2)OCO3)C2=NCCCN12 (centres undefined) ?
24

###

# systemName: UniProtKB P56817
# assay: Inhibition of BACE1 expressed in CHO cells co-expressing human wild type APP protein by ELISA
The molecules listed here are annotated with their EC50.
Provide only the numeric value, understood in nM.

Could you share which EC50 value was measured for NC1=NC(c2ccc(OC(F)(F)F)cc2)(c2cccc(Br)c2)C2=NCCCN12 (stereo not drawn) ?
1600

// next record CC(C)(C)c1cccc(C2(c3ccccc3)N=C(N)N3CCCN=C32)c1 (stereo not drawn)
3000

Repeat for the following molecule: CC1(C)CN2C(N)=NC(c3ccc(OC(F)(F)F)cc3)(c3cccc(-c4cccnc4F)c3)C2=N1 (stereo not drawn)
1500
